Please respond with reported target mRNA inhibition for every item in the list.
SYSTEM NAME: IRF5
ASSAY SETUP: ASO, KARPAS-229, 4 µM
After the bases stand the sugars from the 5' end (letter, count) and the backbone: PS all phosphorothioate, else s phosphorothioate and o phosphodiester by linkage. Methylation of C is not given here. e = 2'-O-(2-methoxyethyl) (MOE); k = constrained ethyl (cEt); d = 2'-deoxy (DNA)
Please provide the amount together with its unit, number first.

Using the record for TCATTTGCCTTCTGCA (sugars k3 d10 k3, PS) , report its target mRNA inhibition.
6%

Using the record for GTCTGGCCCTTTTGGA (sugars kkddddddddkekekk, PS) , report its target mRNA inhibition.
0%

Using the record for CTGACACAGGCGGATG (sugars kddddddddddkekek, PS) , report its target mRNA inhibition.
0%

Using the record for GCTTGGTCTTGACCTC (sugars kekdddddddddeekk, PS) , report its target mRNA inhibition.
46%

Using the record for ATGGTGTTATCTCCGT (sugars kkddddddddkekekk, PS) , report its target mRNA inhibition.
0%

Using the record for CACTGACACAGGCGGA (sugars kkddddddddddkeke, PS) , report its target mRNA inhibition.
0%

Using the record for CCTTCTGCAGGGAGTC (sugars kkdddddddddkekek, PS) , report its target mRNA inhibition.
0%

Using the record for AAGGGCACAGCGCAGG (sugars kkkddddddddkekek, PS) , report its target mRNA inhibition.
0%

Using the record for GTCTTTGAGGTCTGGG (sugars kddddddddddkekek, PS) , report its target mRNA inhibition.
0%

Using the record for TGAGTCATGGGCTGAG (sugars k3 d9 k3 e1, PS) , report its target mRNA inhibition.
11%

###

SYSTEM NAME: APOL1
ASSAY SETUP: ASO, A431, 1 µM
After the bases stand the sugars from the 5' end (letter, count) and the backbone: PS all phosphorothioate, else s phosphorothioate and o phosphodiester by linkage. Methylation of C is not given here. e = 2'-O-(2-methoxyethyl) (MOE); k = constrained ethyl (cEt); d = 2'-deoxy (DNA)
The label depends only on target mRNA inhibition: Condition met if it is at least 90%, Condition not met if it is smaller.

Exam item: decide whether the reported target mRNA inhibition for TTATTGCAGGCTCCAA (sugars k4 d9 k3, PS) is at least 90%.
Condition not met

Exam item: decide whether the reported target mRNA inhibition for TTTTGTAAGTGCAACC (sugars k4 d9 k3, PS) is at least 90%.
Condition met

Exam item: decide whether the reported target mRNA inhibition for GAGAACATTGAAACAC (sugars k3 d10 k3, PS) is at least 90%.
Condition not met

Exam item: decide whether the reported target mRNA inhibition for TTGGGTCAAAAGCGAT (sugars k4 d9 k3, PS) is at least 90%.
Condition met

Exam item: decide whether the reported target mRNA inhibition for CATTCAGAATTTCCAC (sugars k3 d4 k3 e1 d5, PS) is at least 90%.
Condition not met

Exam item: decide whether the reported target mRNA inhibition for CCTCATTGCAAATCCT (sugars k4 d9 k3, PS) is at least 90%.
Condition met

###

SYSTEM NAME: APOL1
ASSAY SETUP: ASO, A431, 0.0625 µM
After the bases stand the sugars from the 5' end (letter, count) and the backbone: PS all phosphorothioate, else s phosphorothioate and o phosphodiester by linkage. Methylation of C is not given here. e = 2'-O-(2-methoxyethyl) (MOE); k = constrained ethyl (cEt); d = 2'-deoxy (DNA)
The label depends only on target mRNA inhibition: rule met if it is at least 50%, rule not met if it is smaller.

Exam item: decide whether the reported target mRNA inhibition for TCCGTCAATATATTCT (sugars k3 d10 k3, PS) is at least 50%.
rule met

Exam item: decide whether the reported target mRNA inhibition for ACTTTACATGCACGAT (sugars kkdddddddddekeke, PS) is at least 50%.
rule not met

Exam item: decide whether the reported target mRNA inhibition for GAGTCATTTGCTAGGT (sugars k4 d9 k3, PS) is at least 50%.
rule met

Exam item: decide whether the reported target mRNA inhibition for GAACGCAATGCTGACT (sugars k3 d10 k3, PS) is at least 50%.
rule not met

Exam item: decide whether the reported target mRNA inhibition for TATTTCTTGATGTGGT (sugars kkddddekekeddddd, PS) is at least 50%.
rule met

Exam item: decide whether the reported target mRNA inhibition for AGCTTTAAACTCAGGT (sugars kkdddddkekeddddd, PS) is at least 50%.
rule met

Exam item: decide whether the reported target mRNA inhibition for CGCAATGCTGACTTGG (sugars kkdddddkekeddddd, PS) is at least 50%.
rule not met

###

SYSTEM NAME: IRF5
ASSAY SETUP: ASO, A-431, 0.00412 µM
After the bases stand the sugars from the 5' end (letter, count) and the backbone: PS all phosphorothioate, else s phosphorothioate and o phosphodiester by linkage. Methylation of C is not given here. [mop] = methoxypropylphosphonate linkage; e = 2'-O-(2-methoxyethyl) (MOE); k = constrained ethyl (cEt); d = 2'-deoxy (DNA); m = 2'-O-methyl
METRIC: target mRNA inhibition (%)
Use % as the unit, but write only the number.

Form field: target mRNA inhibition recorded for TGTCTAGTGTCATGGA (sugars kkdkdddddddeeekk, PS) with IRF5 (enter value)
0

Form field: target mRNA inhibition recorded for TGTCTAGTGTCATGGA (sugars kkddkddddddeeekk, PS) with IRF5 (enter value)
0

Form field: target mRNA inhibition recorded for TCTGAUATGATACCTA (sugars k3 d2 m1 d7 k3, PS) with IRF5 (enter value)
0

Form field: target mRNA inhibition recorded for TGTCTAGTGTCATGGA (sugars k2 d9 e3 k2, linkages s3 [mop]1 s11) with IRF5 (enter value)
0

Form field: target mRNA inhibition recorded for TCTGATATGATACCTA (sugars k3 d10 k3, PS) with IRF5 (enter value)
8

###

Please respond with reported target mRNA inhibition for every item in the list.
SYSTEM NAME: KRAS
ASSAY SETUP: ASO, A431, 0.556 µM
After the bases stand the sugars from the 5' end (letter, count) and the backbone: PS all phosphorothioate, else s phosphorothioate and o phosphodiester by linkage. Methylation of C is not given here. e = 2'-O-(2-methoxyethyl) (MOE); k = constrained ethyl (cEt); d = 2'-deoxy (DNA)
Use % as the unit, but write only the number.

Using the record for TTGATTTGTCAGCAGG (sugars kkddddddddddkeke, PS) , report its target mRNA inhibition.
48

Using the record for CAGTGTGACTCAGTTA (sugars kkkddddddddkekek, PS) , report its target mRNA inhibition.
24

Using the record for ATGGTGTAACATAGGT (sugars k3 d10 k3, PS) , report its target mRNA inhibition.
36

Using the record for GTGTTTATGCAATGTT (sugars kkkdddddddddkeke, PS) , report its target mRNA inhibition.
55

Using the record for GATTGTGCTGAGCTTG (sugars kkdddddddddkdkdk, PS) , report its target mRNA inhibition.
17

Using the record for TGGTGTAACATAGGTT (sugars kkddddddddddkeke, PS) , report its target mRNA inhibition.
62

###

SYSTEM NAME: DGAT2
ASSAY SETUP: ASO, HepG2, 0.12 µM
After the bases stand the sugars from the 5' end (letter, count) and the backbone: PS all phosphorothioate, else s phosphorothioate and o phosphodiester by linkage. Methylation of C is not given here. e = 2'-O-(2-methoxyethyl) (MOE); d = 2'-deoxy (DNA)
Please respond with reported target mRNA inhibition for every item in the list.
Use % as the unit, but write only the number.

Using the record for GCCACCCCCATCCTCATCCT (sugars e5 d10 e5, PS) , report its target mRNA inhibition.
0

Using the record for TTTCGGACCCACTGTGACCT (sugars e5 d10 e5, PS) , report its target mRNA inhibition.
65

Using the record for TCCTGGTGGTCAGCAGGTTG (sugars e5 d10 e5, PS) , report its target mRNA inhibition.
58

Using the record for GATATAGTTCCTGGTGGTCA (sugars e5 d10 e5, PS) , report its target mRNA inhibition.
57

Using the record for CCCTTGCGGTTCCGCAGGGT (sugars e5 d10 e5, PS) , report its target mRNA inhibition.
36

Using the record for TATAGTTCCTGGTGGTCAGC (sugars e5 d10 e5, PS) , report its target mRNA inhibition.
56

Using the record for TTGCCACTCCCATTCTTTGA (sugars e2 d13 e5, PS) , report its target mRNA inhibition.
57

Using the record for TGATTCTTACCTGCAATGAG (sugars e5 d10 e5, PS) , report its target mRNA inhibition.
22

###

SYSTEM NAME: IRF5
ASSAY SETUP: ASO, KARPAS-229, 4 µM
After the bases stand the sugars from the 5' end (letter, count) and the backbone: PS all phosphorothioate, else s phosphorothioate and o phosphodiester by linkage. Methylation of C is not given here. e = 2'-O-(2-methoxyethyl) (MOE); k = constrained ethyl (cEt); d = 2'-deoxy (DNA)
METRIC: target mRNA inhibition (%)
Use % as the unit, but write only the number.

Using the record for GCTTGGTCTTGACCTC (sugars kkddddddddkekekk, PS) , report its target mRNA inhibition.
21

Using the record for CACATCTCCACATCAG (sugars kkddddddddddkeke, PS) , report its target mRNA inhibition.
23

Using the record for CTTCTGCAGGGAGTCA (sugars k3 d10 k3, PS) , report its target mRNA inhibition.
0

Using the record for AAGGGCACAGCGCAGG (sugars kekdddddddddeekk, PS) , report its target mRNA inhibition.
0

Using the record for TGAGTCTCAAACCAGG (sugars kkddddddddddkeke, PS) , report its target mRNA inhibition.
7

Using the record for GGTTCTTGGACTCTCA (sugars kddddddddddkekek, PS) , report its target mRNA inhibition.
9

Using the record for CATTCCATATACACAC (sugars kkkddddddddkekek, PS) , report its target mRNA inhibition.
32

Using the record for TGTCTAGTGTCATGGA (sugars kkddddddddddkeke, PS) , report its target mRNA inhibition.
44

Using the record for CTGTCACATCTCCACA (sugars kkddddddddddkeke, PS) , report its target mRNA inhibition.
19

Using the record for AGATGGTGTTATCTCC (sugars kekdddddddddeekk, PS) , report its target mRNA inhibition.
0

Using the record for GGACGAGTTATGGGAA (sugars k3 d10 k3, PS) , report its target mRNA inhibition.
37

Using the record for AAGGGCACAGCGCAGG (sugars k3 d9 k3 e1, PS) , report its target mRNA inhibition.
3

Using the record for CATTCCATATACACAC (sugars k3 d9 k3 e1, PS) , report its target mRNA inhibition.
39

Using the record for GATGGTGTTATCTCCG (sugars k2 d8 e4 k2, PS) , report its target mRNA inhibition.
0

Using the record for TATTTCTGCTCCAGGT (sugars k2 d8 e4 k2, PS) , report its target mRNA inhibition.
43

Using the record for GGTCTGGCCCTTTTGG (sugars kkkddddddddkdkdk, PS) , report its target mRNA inhibition.
0

Using the record for TGAGTCATGGGCTGAG (sugars kkdddddddddkdkdk, PS) , report its target mRNA inhibition.
12

Using the record for CACATCTCCACATCAG (sugars kkkddddddddkdkdk, PS) , report its target mRNA inhibition.
39

Using the record for ACTGACACAGGCGGAT (sugars k2 d8 e4 k2, PS) , report its target mRNA inhibition.
0

Using the record for CCCAATGCAACATCCA (sugars kkddddddddkekekk, PS) , report its target mRNA inhibition.
0

Using the record for GCTGTCACATCTCCAC (sugars kkkddddddddkdkdk, PS) , report its target mRNA inhibition.
35

Using the record for CATTCCATATACACAC (sugars k2 d8 e4 k2, PS) , report its target mRNA inhibition.
21
